tested.system: XPO1 (Homo sapiens)
Sequence (O14980 whole entry): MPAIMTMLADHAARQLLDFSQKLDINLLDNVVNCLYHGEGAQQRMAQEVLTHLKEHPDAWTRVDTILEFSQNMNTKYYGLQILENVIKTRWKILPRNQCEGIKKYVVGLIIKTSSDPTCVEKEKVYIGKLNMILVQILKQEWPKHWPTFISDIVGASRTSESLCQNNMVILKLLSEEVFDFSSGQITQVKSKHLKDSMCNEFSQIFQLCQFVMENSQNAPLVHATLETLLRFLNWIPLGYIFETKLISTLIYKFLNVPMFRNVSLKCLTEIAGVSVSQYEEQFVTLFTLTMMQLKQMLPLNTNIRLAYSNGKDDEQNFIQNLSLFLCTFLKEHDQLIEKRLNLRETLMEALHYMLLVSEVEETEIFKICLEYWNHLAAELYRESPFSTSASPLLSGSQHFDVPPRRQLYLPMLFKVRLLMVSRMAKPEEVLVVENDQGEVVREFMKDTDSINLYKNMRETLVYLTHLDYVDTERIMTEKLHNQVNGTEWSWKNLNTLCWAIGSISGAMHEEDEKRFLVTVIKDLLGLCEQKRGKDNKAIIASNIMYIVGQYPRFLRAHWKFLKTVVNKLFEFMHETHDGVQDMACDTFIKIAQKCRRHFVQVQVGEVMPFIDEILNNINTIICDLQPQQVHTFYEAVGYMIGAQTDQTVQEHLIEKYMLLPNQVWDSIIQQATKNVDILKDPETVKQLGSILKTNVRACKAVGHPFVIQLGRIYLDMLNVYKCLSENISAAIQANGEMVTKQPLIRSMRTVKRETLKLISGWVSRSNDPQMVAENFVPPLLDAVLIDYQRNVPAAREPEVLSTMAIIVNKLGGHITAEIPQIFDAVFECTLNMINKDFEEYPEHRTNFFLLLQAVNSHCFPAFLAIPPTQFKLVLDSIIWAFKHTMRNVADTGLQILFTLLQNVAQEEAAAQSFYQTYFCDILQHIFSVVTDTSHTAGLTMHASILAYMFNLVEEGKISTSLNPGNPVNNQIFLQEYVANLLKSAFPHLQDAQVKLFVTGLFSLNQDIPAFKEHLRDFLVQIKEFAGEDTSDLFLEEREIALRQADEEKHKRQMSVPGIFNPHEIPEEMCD
experiment.notes: REV-GFP translocation assay in U2OS cells
Format: cell-based
Design: endogenous in cells; host or cells: U2OS cells stably expressing REV-GFP (clones from HD Biosciences)
test.context: concentration stated as EC50 in washout study; read-out: EC50 (REV-EGFP translocation)
measured.attribute: EC50 (nM)
Only the number, expressed in nM, is required.

**Query** Find EC50 for `CC(C)(C)C(=O)NNC(=O)/C=C\n1cnc(-c2cc(C(F)(F)F)cc(S(F)(F)(F)(F)F)c2)n1` on XPO1 (Homo sapiens) and write it down.
**Result** 120

* * *

experiment.notes: Pharmacokinetic profile summary
Type: in vivo, mice or rats
test.context: plasma; mice or rats
Exercise: for every item that follows, state its recorded half-life.
The reply should contain only the number, in h.

**Query** Write down half-life measured for item `CC(C)(C)C(=O)NNC(=O)/C=C\n1cnc(-c2cc(C(F)(F)F)cc(S(F)(F)(F)(F)F)c2)n1`
**Result** 5.2

**Query** Supply measured half-life of `O=C(/C=C\n1cnc(-c2cc(C(F)(F)F)cc(S(F)(F)(F)(F)F)c2)n1)NNc1ccccn1` in your reply.
**Result** 6.9

**Query** Annotate the compound O=C(/C=C\n1cnc(-c2cc(C(F)(F)F)cc(C(F)(F)F)c2)n1)NNc1cnccn1 [KPT-330, reference compound] with its measured half-life.
**Result** 1.7

**Query** Give the value of half-life reported for the following: `O=C(/C=C\n1cnc(-c2cc(C(F)(F)F)cc(S(F)(F)(F)(F)F)c2)n1)NNc1cnccn1`
**Result** 4.7

**Query** For `NC(=O)/C(=C/n1cnc(-c2cc(C(F)(F)F)cc(S(F)(F)(F)(F)F)c2)n1)c1cncnc1` , write its half-life.
**Result** 2.9

* * *

experiment.notes: Pharmacokinetic profile summary
Assay type: in vivo, mice or rats
test.context: po, 3 mg/kg; 3 mpk; second number of Plasma/brain pair; read-out: Cmax/(ng/mL) brain
Description: Blood was collected from mice (n=3, or 5) to contribute to the total of 10 time points (pre-dose, 5 min, 15 min, 30 min, 1 hour, 2 hours, 4 hours, 8 hours, 12 hours and 24 hours). […] Concentration of compounds in plasma was determined using LC-MS-MS instrumentation (API 4000, Triple Quadrupole LC/MS/MS Mass Spectrometer). AUC values were calculated using Phoenix Win Nonlin 6.3 software package, PO-Noncompartmental model 200 (extravascular input). […]
measured.attribute: Cmax (ng/mL)
API: value field is a number in ng/mL; no unit string.

**Query** Quick one: give measured Cmax for `CC(C)(C)C(=O)NNC(=O)/C=C\n1cnc(-c2cc(C(F)(F)F)cc(S(F)(F)(F)(F)F)c2)n1`
**Result** 1190

* * *

Give Kp at 1 h for every item shown.
experiment.notes: Ratio of brain to plasma
Type: in vivo
test.context: rat, brain/plasma; rats; 10 mg/kg PO; 1 h
Method: Following collection, brain tissue was rinsed with cold saline, dried on filter paper, weighed and snap-frozen by placing on dry ice. All samples were stored frozen at approximately −80° C. until analysis. […] Concentration of compounds in plasma was determined using LC-MS-MS instrumentation (API 4000, Triple Quadrupole LC/MS/MS Mass Spectrometer). […]
API doc: respond with a numeric literal and nothing else, no unit.

**Query** Return reported Kp at 1 h. Input molecule: `O=C(/C=C\n1cnc(-c2cc(C(F)(F)F)cc(S(F)(F)(F)(F)F)c2)n1)NNc1ccccn1`
**Result** 0.954

**Query** Respond only with Kp at 1 h recorded for `O=C(/C=C\n1cnc(-c2cc(C(F)(F)F)cc(S(F)(F)(F)(F)F)c2)n1)NNc1cnccn1`
**Result** 0.707

* * *

experiment.notes: Pharmacokinetic profile in plasma
Format: in vivo
test.context: mouse, po, P.O., mice
measured.attribute: Cmax
Please answer using the number first and the unit second.

**Query** Look up and state reported Cmax for O=C(/C=C\n1cnc(-c2cc(C(F)(F)F)cc(S(F)(F)(F)(F)F)c2)n1)NNc1cnccn1 [Compound I]
**Result** 2550 ng/mL

**Query** Please list Cmax recorded for the compound O=C(/C=C\n1cnc(-c2cc(C(F)(F)F)cc(S(F)(F)(F)(F)F)c2)n1)NNc1ccccn1 [Compound II]
**Result** 1600 ng/mL

* * *

experiment.notes: Pharmacokinetic profile summary
Format: in vivo, mice or rats
test.context: brain/plasma; 5 mpk/AUC Ratio; read-out: B/P ratio
measured.attribute: Kp
In your answer, state the number alone without any accompanying words.

**Query** For the compound `NC(=O)/C(=C/n1cnc(-c2cc(C(F)(F)F)cc(S(F)(F)(F)(F)F)c2)n1)c1cncnc1` , give its reported Kp.
**Result** 0.29

* * *

experiment.notes: Pharmacokinetic profile in plasma
Assay type: in vivo
test.context: mouse, po, P.O., mice, read-out: MRT0-last
Record form. Attribute: MRT last. Fill in for each entry.
// note: answer is a bare numeric in h

**Query** // Input: `O=C(/C=C\n1cnc(-c2cc(C(F)(F)F)cc(S(F)(F)(F)(F)F)c2)n1)NNc1ccccn1` . Output its MRT last only.
**Result** 6.9

**Query** Determine from records and report MRT last for `O=C(/C=C\n1cnc(-c2cc(C(F)(F)F)cc(S(F)(F)(F)(F)F)c2)n1)NNc1cnccn1`
**Result** 4.51

* * *

tested.system: XPO1 (Homo sapiens)
experiment.notes: REV-GFP translocation assay in U2OS cells
Type: cell-based
Parameters: endogenous in cells; host or cells: U2OS cells stably expressing REV-GFP (clones from HD Biosciences)
test.context: Table 13; read-out: Rev-GFP assay/μM
For each of the compounds below, state its EC50.
Remember to follow the number with its unit.

**Query** Quote EC50 reported for O=C(/C=C\n1cnc(-c2cc(C(F)(F)F)cc(S(F)(F)(F)(F)F)c2)n1)NNc1cnccn1 [Compound I] please.
**Result** 0.012 µM

**Query** Provide measured EC50 value, entry: CC(C)(C)C(=O)NNC(=O)/C=C\n1cnc(-c2cc(C(F)(F)F)cc(S(F)(F)(F)(F)F)c2)n1 [Compound III]
**Result** 0.21 µM

**Query** Given O=C(/C=C\n1cnc(-c2cc(C(F)(F)F)cc(S(F)(F)(F)(F)F)c2)n1)NNc1ccccn1 [Compound II] , respond with its EC50.
**Result** 0.035 µM

**Query** Look up and state reported EC50 for NC(=O)/C(=C/n1cnc(-c2cc(C(F)(F)F)cc(S(F)(F)(F)(F)F)c2)n1)c1cncnc1 [Compound IV]
**Result** 0.015 µM

* * *

System: MV411
experiment.notes: CellTiter-Glo cell proliferation assay, MV411
Type: cell-based
test.context: Homo sapiens, MV4-11, 72 hours, Table 1, read-out: Growth inhibition (IC50)
measured.attribute: pIC50
On this scale, pIC50 is minus log10 of a concentration expressed in M (mol/L).

**Query** Write down measured pIC50 (MV411) for this molecule. NC(=O)/C(=C/n1cnc(-c2cc(C(F)(F)F)cc(S(F)(F)(F)(F)F)c2)n1)c1cncnc1 [Compound IV]
**Result** 6.96

* * *

experiment.notes: Pharmacokinetic profile summary
Assay type: in vivo, mice or rats
test.context: mouse, brain/plasma; 5 mpk/mice/AUC Ratio; read-out: B/P ratio
measured.attribute: Kp
In your answer, state the number alone without any accompanying words.

**Query** Report Kp, nothing else, for this compound: `O=C(/C=C\n1cnc(-c2cc(C(F)(F)F)cc(S(F)(F)(F)(F)F)c2)n1)NNc1ccccn1`
**Result** 1.58

* * *

experiment.notes: Pharmacokinetic profile in plasma
Type: in vivo
test.context: mouse, iv, I. V., mice
measured.attribute: half-life (h)
Record the value in h, omitting the unit from your answer.

**Query** Output measured half-life for this item: `O=C(/C=C\n1cnc(-c2cc(C(F)(F)F)cc(S(F)(F)(F)(F)F)c2)n1)NNc1ccccn1`
**Result** 3.82

**Query** Read off the recorded half-life for `O=C(/C=C\n1cnc(-c2cc(C(F)(F)F)cc(S(F)(F)(F)(F)F)c2)n1)NNc1cnccn1`
**Result** 1.62

* * *

experiment.notes: Pharmacokinetic profile summary
Type: in vivo, mice or rats
test.context: rat, po, 10 mg/kg; 10 mpk; second number of Plasma/brain pair; read-out: Cmax/(ng/mL) brain
measured.attribute: Cmax

**Query** Using known records, supply Cmax for `O=C(/C=C\n1cnc(-c2cc(C(F)(F)F)cc(S(F)(F)(F)(F)F)c2)n1)NNc1cnccn1`
**Result** 1300 ng/mL

* * *

Test system: U87MG
experiment.notes: CellTiter-Glo cell proliferation assay, U87MG
Assay type: cell-based, human
test.context: Homo sapiens, U-87 MG, Table 9, first value column; read-out: U87MG IC50
measured.attribute: pIC50
Would you please state pIC50, meaning minus log10 of the concentration in mol/L, as a bare number?

**Query** For the molecule `O=C(/C=C\n1cnc(-c2cc(C(F)(F)F)cc(S(F)(F)(F)(F)F)c2)n1)NNc1cnccn1` , report pIC50.
**Result** 6.42

**Query** Report pIC50, nothing else, for this molecule: O=C(/C=C\n1cnc(-c2cc(C(F)(F)F)cc(C(F)(F)F)c2)n1)NNc1cnccn1 [KPT-330, reference compound]
**Result** 6.28

**Query** Tell me measured pIC50 for `CC(C)(C)C(=O)NNC(=O)/C=C\n1cnc(-c2cc(C(F)(F)F)cc(S(F)(F)(F)(F)F)c2)n1` please.
**Result** 5.95

**Query** Give recorded pIC50. `O=C(/C=C\n1cnc(-c2cc(C(F)(F)F)cc(S(F)(F)(F)(F)F)c2)n1)NNc1ccccn1`
**Result** 6.27
